Recorded Phage binding ELISA signal, Anti-PSMA Fab values for a group of binders are listed next.
Target or test system: T1, PSMA Fab (006 PSMA Fab)
T1 construct: also called Anti-PSMA Fab
Method: clonal phage supernatant on biotinylated PSMA Fab captured on neutravidin plate, anti-M13-HRP detection;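 further: before phage were added, wells received PSMA antigen in blocking buffer or blocking buffer alone, with no wash in between, followed by a short phage incubation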
Form: value (number only, do not type unit).

Phage binding ELISA signal, Anti-PSMA Fab in this record for YNQYCTPLWMCEGF [Phage-3924] : 0.977

Phage binding ELISA signal, Anti-PSMA Fab in this record for GAYTCVPAWMCQGF [Phage-3922] : 0.979

Phage binding ELISA signal, Anti-PSMA Fab in this record for GQIMCIPTWMCSGF [Phage-3921] : 0.98

Phage binding ELISA signal, Anti-PSMA Fab in this record for IEAQCRPVWMCHGF [Phage-3923] : 0.978

Phage binding ELISA signal, Anti-PSMA Fab in this record for STTLCRPAWMCTGM [Phage-3916] : 1.02

Phage binding ELISA signal, Anti-PSMA Fab in this record for ESRACVPNWMCHGL [Phage-3911] : 1.03

Phage binding ELISA signal, Anti-PSMA Fab in this record for FGVKCEPRWMCNGF [Phage-3914] : 1.02

Phage binding ELISA signal, Anti-PSMA Fab in this record for YQMLCVPEWMCSGL [Phage-3915] : 1.02

Phage binding ELISA signal, Anti-PSMA Fab in this record for MSPMCSPSWMCMGF [Phage-3919] : 0.993

The record that follows has no Phage binding ELISA signal, Anti-PSMA Fab shown yet.
Phage binding ELISA signal, Anti-PSMA Fab in this record for AQVLCVPNWMCTGF [Phage-3920] : 0.985
